Listed compounds paired with reported MIC
system: E.Coli JT 425
Counter-ions that a name gives are not always drawn.
measurementKind: MIC (µg/mL)

1) CCN1CCN(C(=O)N[C@@H](C(=O)N[C@]2(NC=O)C(=O)N3[C@@H](C(=O)O)C(C)(C)S[C@@H]32)c2ccccc2)C(=O)C1=O [Compound A, sodium salt, reference compound] ... 0.25
2) CO[C@@]1(NC(=O)[C@H](NC(=O)N2CCN(Cc3ccc(O)c(O)c3)C(=O)C2=O)c2ccccc2)C(=O)N2[C@@H](C(=O)O)C(C)(C)S[C@@H]21 ... 16
3) CCN1CCN(C(=O)N[C@@H](C(=O)N[C@@H]2C(=O)N3[C@@H]2SC(C)(C)[C@@H]3C(=O)O)c2ccccc2)C(=O)C1=O [Piperacillin, sodium salt, reference compound] ... 32
4) CC1(C)S[C@H]2N(C(=O)[C@@]2(NC=O)NC(=O)[C@H](NC(=O)N2CCN(Cc3cc(O)c(O)cn3)C(=O)C2=O)c2ccccc2)[C@H]1C(=O)O ... 0.25
5) CC1(C)S[C@@H]2[C@H](NC(=O)[C@H](NC(=O)N3CCN(Cc4ccc(O)c(O)c4)C(=O)C3=O)c3ccccc3)C(=O)N2[C@H]1C(=O)O ... 1

---

system: K.pneumoniae T767
Counter-ions that a name gives are not always drawn.
measurementKind: log10(MIC) (log10 of the value in µg/mL)

1. CC1(C)S[C@H]2N(C(=O)[C@@]2(NC=O)NC(=O)[C@H](NC(=O)N2CCN(Cc3cc(O)c(O)cn3)C(=O)C2=O)c2ccccc2)[C@H]1C(=O)O ... -1.22
2. CC1(C)S[C@@H]2[C@H](NC(=O)[C@H](NC(=O)N3CCN(Cc4ccc(O)c(O)c4)C(=O)C3=O)c3ccccc3)C(=O)N2[C@H]1C(=O)O ... -0.30
3. CCN1CCN(C(=O)N[C@@H](C(=O)N[C@@H]2C(=O)N3[C@@H]2SC(C)(C)[C@@H]3C(=O)O)c2ccccc2)C(=O)C1=O [Piperacillin, sodium salt, reference compound] ... 0.90
4. CCN1CCN(C(=O)N[C@@H](C(=O)N[C@]2(NC=O)C(=O)N3[C@@H](C(=O)O)C(C)(C)S[C@@H]32)c2ccccc2)C(=O)C1=O [Compound A, sodium salt, reference compound] ... -0.92
5. CO[C@@]1(NC(=O)[C@H](NC(=O)N2CCN(Cc3ccc(O)c(O)c3)C(=O)C2=O)c2ccccc2)C(=O)N2[C@@H](C(=O)O)C(C)(C)S[C@@H]21 ... -0.60

---

Listed molecules paired with reported MIC
system: E.Coli DC RTEM
Where a name gives a salt, the structure may show the parent alone.
measurementKind: MIC

1) CC1(C)S[C@H]2N(C(=O)[C@@]2(NC=O)NC(=O)[C@H](NC(=O)N2CCN(Cc3ccc(O)c(O)c3)C(=O)C2=O)c2ccccc2)[C@H]1C(=O)O [Example 2] ... < 0.03 µg/mL
2) CO[C@@]1(NC(=O)[C@H](NC(=O)N2CCN(Cc3ccc(O)c(O)c3)C(=O)C2=O)c2ccccc2)C(=O)N2[C@@H](C(=O)O)C(C)(C)S[C@@H]21 [Example 3] ... 2 µg/mL
3) CCN1CCN(C(=O)N[C@@H](C(=O)N[C@@H]2C(=O)N3[C@@H]2SC(C)(C)[C@@H]3C(=O)O)c2ccccc2)C(=O)C1=O [Piperacillin, sodium salt, reference compound] ... > 128 µg/mL
